Tested on: HOP-18
Assay: NCI tumour cell line growth inhibition, 48 h
The source made the active and inactive calls. Cut-off read from the data, not from the text of the source: active = GI50 up to about 1.1 µM and inactive = higher.
Outcome codes: label 1 (active), label 0 (inactive)

# compound, class-name
measured = [
    ("O=NN(CCCl)C(=O)NC1CCSc2ccccc21 (configuration not stated)", "label 0"),
    ("CSc1nnc(CCC(=O)Nc2c(C)cccc2C)o1", "label 0"),
    ("COc1ccc(CN2C(=O)C(Cc3cc(OC)c(OC)c(C)c3OC)N(C(=O)OC(C)C)C(=O)/C2=C/c2cc(OC)c(OC)c(C)c2OC)cc1 (configuration not stated)", "label 0"),
    ("CC(=O)N1CCC(=O)/C(=C/c2ccccc2)C1", "label 0"),
    ("CC(c1cccc2ccccc12)/[N+]([O-])=C/c1ccccc1 (configuration not stated)", "label 0"),
    ("Nc1nc(N)c2c(Cl)c(CNc3ccc(Cl)c(Cl)c3)ccc2n1", "label 1"),
    ("Cc1c2ccnc(-c3ccccc3)c2cc2c1[nH]c1ccccc12", "label 0"),
]

---

Test system: KM12
Assay: NCI tumour cell line growth inhibition, 48 h
Activity calls are given as the source filed them. No stated cut-off is given here; in the data, active = GI50 up to about 1.1 µM and inactive = higher.
Each item that follows carries a reported GI50.

# compound, GI50
records = [
    ("O=C(N/N=C/c1ccc(Cl)cc1)c1c(Cl)c(Cl)c(Cl)c(Cl)c1-c1nc2ccccc2[nH]1", "8.36 µM (inactive)"),
    ("Cc1cc(C)nc(SCCc2cccc[n+]2C)n1", "> 100 µM (inactive)"),
    ("CC1=C(C(=O)Nc2ccccc2)C(c2ccc(Cl)c(Cl)c2)C(C(=O)Nc2ccccc2)=C(C)N1", "13 µM (inactive)"),
    ("COc1ccc2nc(NC(=O)C(=O)C(C#N)c3ccc(Cl)c(Cl)c3)sc2c1 (stereo not drawn)", "> 100 µM (inactive)"),
    ("CCO/C=N\\C1=C(C#N)SC2=N/C(=C\\c3ccco3)C(=O)N21", "> 100 µM (inactive)"),
    ("N#Cc1cc2c(cc1C#N)/C(=N\\c1cccc(N)n1)N/C2=N\\c1cccc(N)n1", "36.8 µM (inactive)"),
    ("COc1ccc(-c2[nH]c3c4c(nc5c(c24)C(=O)CC(C)(C)C5)CC(C)(C)C3)cc1", "40.4 µM (inactive)"),
    ("O=C(c1ccccc1)n1cc(/C=C/[N+](=O)[O-])c2ccccc21", "18.5 µM (inactive)"),
    ("CCOC(=O)c1c(C)noc1/N=N/N(CCO)CCO", "36.6 µM (inactive)"),
    ("Cc1cc(C)n(-c2nc(-n3nc(C)cc3C)nc(-n3nc(C)cc3C)n2)n1", "> 100 µM (inactive)"),
    ("COC(O)C(=O)c1ccc2c(c1)CC1(C2)Cc2cc3c(cc2C1=O)CCC3 (stereo not drawn)", "20.9 µM (inactive)"),
    ("CCCCCCCCCCC(C(=O)O)C1(C(=O)O)CCC(=O)O1 (stereo not drawn)", "> 100 µM (inactive)"),
    ("O=[PH]1c2ccccc2Nc2ccccc21", "> 100 µM (inactive)"),
    ("OCc1ccc2c(c1)CC1(C2)Cc2cc3c(cc2C1O)CCC3 (stereo not drawn)", "2.87 µM (inactive)"),
    ("COC(=O)c1sc(=NC(=S)N2CCCCC2)sc1C(=O)OC", "91.4 µM (inactive)"),
    ("Cc1ccc(-c2cc(-c3ccc(Cl)cc3)nc(/N=C3\\C(=O)N(CN4CCCCC4)c4ccc(Cl)cc43)n2)cc1", "15.8 µM (inactive)"),
    ("O=C(CC(C(=O)c1ccsc1)c1ccsc1)c1ccsc1 (stereo not drawn)", "42.7 µM (inactive)"),
    ("Cc1ccc(-c2c(C#N)c(-c3ccc([N+](=O)[O-])cc3)c(C#N)c(=O)n2NS(=O)(=O)c2ccccc2)cc1", "31.6 µM (inactive)"),
    ("Clc1ccc(C2SCc3nc4ccccc4n32)cc1Cl (stereo not drawn)", "11.8 µM (inactive)"),
    ("CC(C)Oc1c(C2(c3ccccc3O)SCCCS2)c(=O)c1=O", "51.5 µM (inactive)"),
    ("NC12CC3CC(C1)CC(C(=O)O)(C3)C2", "> 100 µM (inactive)"),
    ("CCOC(=O)C(Cc1cc(OC)c(CC(C(=O)OCC)C(=O)OCC)cc1OC)C(=O)OCC", "> 100 µM (inactive)"),
    ("N#C/C(=N/Nc1[nH]cnc1C(N)=O)C(=O)Nc1ccccc1", "13.9 µM (inactive)"),
]

Numbers sourced from ChEMBL document CHEMBL1201862.
